Would you mind telling me the reported pIC50 of each entry?
- TARGET_OR_SYSTEM: PDE4Bcat (Homo sapiens)
- TEST_NAME: Phosphodiesterase inhibitory activity, recombinant PDE4Bcat, [3H]cAMP
- COND: 30° C. 20 minutes, read-out: IC50 (μmol/L) PDE4
pIC50: −log10 of the molar value.

Please give the measured pIC50 for this compound: COc1ccc(C2=NN(CCCCOc3ccc(C4=NNC(=O)CC4C)cc3)C(=O)C2(C)C)c2cccnc12 (stereo not drawn) 7.00 to 8.00

Please give the measured pIC50 for this compound: CCc1ccc2c(C3=NN(CCCCOc4ccc(C5=NNC(=O)CC5C)c(F)c4F)C(=O)C3(C)C)ccc(OC)c2n1 (single isomer, unassigned; (+)) [Example 210] 7.00 to 8.00

Please give the measured pIC50 for this compound: CCc1ccc2c(C3=NN(CCCCOc4ccc(C5=NNC(=O)C5(C)C)cc4F)C(=O)C3(C)C)ccc(OC)c2n1 7.00 to 8.00

Please give the measured pIC50 for this compound: CCc1ccc2c(C3=NN(CCCCOc4ccc(C5=NNC(=O)CC5C)cc4F)C(=O)C3(C)C)ccc(OC)c2n1 (stereo not drawn) [Example 205] 7.00 to 8.00

Please give the measured pIC50 for this compound: COc1ccc(C2=NN(CCCCOc3ccc(C4=NNC(=O)CC4)c(F)c3F)C(=O)C2(C)C)c2[nH]c(C(F)(F)F)nc12 > 8.00

Please give the measured pIC50 for this compound: COc1ccc(C2=NN(CCCCOc3ccc(C4=NNC(=O)CC4C)cc3)C(=O)C2(C)C)c2ccc(C)nc12 (stereo not drawn) 7.00 to 8.00

* * *

Would you mind telling me the reported IC50 of each entry?
- TARGET_OR_SYSTEM: PDE3A catalytic domain (PDE3Acat) (Homo sapiens)
- Construct: isolate the cDNA of a PDE3A catalytic domain; made in house; host or cells: Sf9 insect cells (baculovirus, Bac-to-Bac / Gateway)
- TEST_NAME: Phosphodiesterase inhibitory activity, recombinant PDE3Acat, [3H]cAMP
- Format: biochemical
- COND: 30° C. 20 minutes, read-out: IC50 (μmol/L) PDE3

Please give the measured IC50 for this molecule: COc1ccc(C2=NN(CCCCOc3ccc(C4=NNC(=O)CC4C)c(F)c3F)C(=O)C2(C)C)c2cc(C(F)(F)F)sc12 (stereo not drawn) [Example 224] < 0.01 µmol/L

Please give the measured IC50 for this molecule: CCc1ccc2c(C3=NN(CCCCOc4ccc(C5=NNC(=O)CC5C)cc4OC)C(=O)C3(C)C)ccc(OC)c2n1 (stereo not drawn) [Example 208] 0.01 to 0.1 µmol/L

Please give the measured IC50 for this molecule: CCc1ccc2c(C3=NN(CCCCOc4ccc(C5=NNC(=O)CC5C)cc4F)C(=O)C3(C)C)ccc(OC)c2n1 (single isomer, unassigned; (-)) [Example 207] < 0.01 µmol/L

Please give the measured IC50 for this molecule: CCc1ccc2c(C3=NN(CCCCOc4ccc(C5=NNC(=O)CC5)cc4F)C(=O)C3(C)C)ccc(OC)c2n1 [Example 199] 0.01 to 0.1 µmol/L

Please give the measured IC50 for this molecule: COc1ccc(C2=NN(CCCCOc3ccc(C4=NNC(=O)CC4)c(F)c3F)C(=O)C2(C)C)c2cc(C(F)(F)F)oc12 [Example 216] < 0.01 µmol/L

Please give the measured IC50 for this molecule: CCc1ccc2c(C3=NN(CCCCOc4ccc(C5=NNC(=O)C5(C)C)cc4OC)C(=O)C3(C)C)ccc(OC)c2n1 [Example 204] 0.1 to 1 µmol/L

* * *

Would you mind telling me the reported IC50 of each entry?
- TARGET_OR_SYSTEM: PDE3A catalytic domain (PDE3Acat) (Homo sapiens, UniProt Q14432)
- Construct: isolate the cDNA of a PDE3A catalytic domain
- Sequence (Q14432 674-1093 limits assumed): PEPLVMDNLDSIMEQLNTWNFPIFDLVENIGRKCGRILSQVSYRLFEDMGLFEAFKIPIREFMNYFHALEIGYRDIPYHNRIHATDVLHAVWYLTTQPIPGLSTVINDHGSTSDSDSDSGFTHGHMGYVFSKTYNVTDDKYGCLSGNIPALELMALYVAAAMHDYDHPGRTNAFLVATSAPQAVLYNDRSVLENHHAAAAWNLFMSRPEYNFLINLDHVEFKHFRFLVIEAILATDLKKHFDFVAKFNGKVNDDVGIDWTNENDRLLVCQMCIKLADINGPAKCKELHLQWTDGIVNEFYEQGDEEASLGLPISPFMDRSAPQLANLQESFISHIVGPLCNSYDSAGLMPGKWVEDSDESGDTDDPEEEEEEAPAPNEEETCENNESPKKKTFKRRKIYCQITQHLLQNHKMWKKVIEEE
- TEST_NAME: Phosphodiesterase inhibitory activity, recombinant PDE3Acat, [3H]cAMP
- COND: 30° C. 20 minutes, read-out: IC50 (μmol/L) PDE3

Please give the measured IC50 for this molecule: CCc1cc2c(C3=NN(CCCCOc4ccc(C5=NNC(=O)C5(C)C)c(F)c4F)C(=O)C3(C)C)ccc(OC)n2c1 0.01 to 0.1 µmol/L

Please give the measured IC50 for this molecule: COc1ccc(C2=NN(CCCCOc3ccc(C4=NNC(=O)CC4C)cc3)C(=O)C2(C)C)c2cccnc12 (stereo not drawn) < 0.01 µmol/L

Please give the measured IC50 for this molecule: COc1ccc(C2=NN(CCCCOc3ccc(C4=NNC(=O)C4(C)C)c(F)c3F)C(=O)C2(C)C)c2cc(C(F)(F)F)oc12 0.1 to 1 µmol/L

Please give the measured IC50 for this molecule: CCc1ccc2c(C3=NN(CCCCOc4ccc(C5=NNC(=O)CC5C)c(F)c4F)C(=O)C3(C)C)ccc(OC)c2n1 (stereo not drawn) [Example 209] < 0.01 µmol/L

Please give the measured IC50 for this molecule: CCc1ccc2c(C3=NN(CCCCOc4ccc(C5=NNC(=O)CC5C)c(F)c4F)C(=O)C3(C)C)ccc(OC)c2n1 (single isomer, unassigned; (-)) [Example 211] < 0.01 µmol/L

Please give the measured IC50 for this molecule: COc1ccc(C2=NN(CCCCOc3ccc(C4=NNC(=O)CC4)c(F)c3F)C(=O)C2(C)C)c2sc(C(F)(F)F)nc12 < 0.01 µmol/L

* * *

- TARGET_OR_SYSTEM: PDE4Bcat (Homo sapiens, UniProt Q07343)
- Sequence (Q07343 330-659 limits assumed): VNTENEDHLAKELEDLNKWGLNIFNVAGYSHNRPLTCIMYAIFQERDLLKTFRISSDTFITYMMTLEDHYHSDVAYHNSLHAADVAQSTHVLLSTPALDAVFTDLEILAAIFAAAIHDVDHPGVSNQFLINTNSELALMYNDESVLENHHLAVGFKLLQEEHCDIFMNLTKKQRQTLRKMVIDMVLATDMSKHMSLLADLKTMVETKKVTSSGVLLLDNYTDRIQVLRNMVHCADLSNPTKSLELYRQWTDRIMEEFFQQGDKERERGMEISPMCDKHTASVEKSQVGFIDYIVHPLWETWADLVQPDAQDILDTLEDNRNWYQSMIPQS
- TEST_NAME: Phosphodiesterase inhibitory activity, recombinant PDE4Bcat, [3H]cAMP
- COND: 30° C. 20 minutes, read-out: IC50 (μmol/L) PDE4
pIC50: −log10 of the molar value.
OBSERVATION_TYPE: pIC50

Please give the measured pIC50 for this compound: COc1ccc(C2=NN(CCCCOc3ccc(C4=NNC(=O)C4(C)C)c(F)c3F)C(=O)C2(C)C)c2[nH]c(C(F)(F)F)nc12 > 8.00

Please give the measured pIC50 for this compound: COc1ccc(C2=NN(CCCCOc3ccc(C4=NNC(=O)CC4C)cc3)C(=O)C2(C)C)c2ccc(C(C)C)nc12 (stereo not shown) 6.00 to 7.00

Please give the measured pIC50 for this compound: CCc1ccc2c(C3=NN(CCCCOc4ccc(C5=NNC(=O)CC5C)cc4F)C(=O)C3(C)C)ccc(OC)c2n1 (single isomer, unassigned; (-)) [Example 207] 7.00 to 8.00

Please give the measured pIC50 for this compound: COc1ccc(C2=NN(CCCCOc3ccc(C4=NNC(=O)CC4)c(F)c3F)C(=O)C2(C)C)c2cc(C(F)(F)F)oc12 > 8.00

Please give the measured pIC50 for this compound: CCc1ccc2c(C3=NN(CCCCOc4ccc(C5=NNC(=O)C5(C)C)c(F)c4F)C(=O)C3(C)C)ccc(OC)c2n1 7.00 to 8.00

Please give the measured pIC50 for this compound: COc1ccc(C2=NN(CCCCOc3ccc(C4=NNC(=O)CC4C)c(F)c3F)C(=O)C2(C)C)c2sc(C(F)(F)F)nc12 (stereo not shown) > 8.00

Please give the measured pIC50 for this compound: COc1ccc(C2=NN(CCCCOc3ccc(C4=NNC(=O)CC4)c(F)c3F)C(=O)C2(C)C)c2cc(C(F)(F)F)sc12 6.00 to 7.00

* * *

- TARGET_OR_SYSTEM: PDE4Bcat (Homo sapiens, UniProt Q07343)
- TEST_NAME: Phosphodiesterase inhibitory activity, recombinant PDE4Bcat, [3H]cAMP
- COND: 30° C. 20 minutes, read-out: IC50 (μmol/L) PDE4
OBSERVATION_TYPE: IC50

Please give the measured IC50 for this compound: CCc1cc2c(C3=NN(CCCCOc4ccc(C5=NNC(=O)CC5)c(F)c4F)C(=O)C3(C)C)ccc(OC)n2c1 0.01 to 0.1 µmol/L

Please give the measured IC50 for this compound: CCc1ccc2c(C3=NN(CCCCOc4ccc(C5=NNC(=O)CC5C)cc4OC)C(=O)C3(C)C)ccc(OC)c2n1 (stereo not drawn) 0.1 to 1 µmol/L

Please give the measured IC50 for this compound: CCc1ccc2c(C3=NN(CCCCOc4ccc(C5=NNC(=O)CC5)c(F)c4F)C(=O)C3(C)C)ccc(OC)c2n1 0.01 to 0.1 µmol/L

Please give the measured IC50 for this compound: COc1ccc(C2=NN(CCCCOc3ccc(C4=NNC(=O)C4(C)C)c(F)c3F)C(=O)C2(C)C)c2ccc(C)nc12 0.01 to 0.1 µmol/L

Please give the measured IC50 for this compound: COc1ccc(C2=NN(CCCCOc3ccc(C4=NNC(=O)C4(C)C)c(F)c3F)C(=O)C2(C)C)n2cc(C(F)(F)F)nc12 < 0.01 µmol/L

Please give the measured IC50 for this compound: COc1ccc(C2=NN(CCCCOc3ccc(C4=NNC(=O)CC4C)c(F)c3F)C(=O)C2(C)C)c2[nH]c(C(F)(F)F)nc12 (stereo not drawn) < 0.01 µmol/L

* * *

Would you mind telling me the reported pIC50 of each entry?
- TARGET_OR_SYSTEM: PDE3A catalytic domain (PDE3Acat) (Homo sapiens, UniProt Q14432)
- Construct: isolate the cDNA of a PDE3A catalytic domain
- TEST_NAME: Phosphodiesterase inhibitory activity, recombinant PDE3Acat, [3H]cAMP
- COND: 30° C. 20 minutes, read-out: IC50 (μmol/L) PDE3
pIC50: −log10 of the molar value.

Please give the measured pIC50 for this molecule: COc1ccc(C2=NN(CCCCOc3ccc(C4=NNC(=O)C4(C)C)c(F)c3F)C(=O)C2(C)C)c2ccc(C)nc12 > 8.00

Please give the measured pIC50 for this molecule: COc1ccc(C2=NN(CCCCOc3ccc(C4=NNC(=O)C4(C)C)c(F)c3F)C(=O)C2(C)C)c2cc(C(F)(F)F)sc12 7.00 to 8.00

Please give the measured pIC50 for this molecule: COc1ccc(C2=NN(CCCCOc3ccc(C4=NNC(=O)CC4C)c(F)c3F)C(=O)C2(C)C)c2[nH]c(C(F)(F)F)nc12 (stereo not drawn) > 8.00

Please give the measured pIC50 for this molecule: COc1ccc(C2=NN(CCCCOc3ccc(C4=NNC(=O)CC4C)c(F)c3F)C(=O)C2(C)C)c2cccnc12 (stereo not drawn) > 8.00

Please give the measured pIC50 for this molecule: CCc1ccc2c(C3=NN(CCCCOc4ccc(C5=NNC(=O)CC5)c(F)c4F)C(=O)C3(C)C)ccc(OC)c2n1 > 8.00

Please give the measured pIC50 for this molecule: CCc1ccc2c(C3=NN(CCCCOc4ccc(C5=NNC(=O)C5(C)C)c(F)c4F)C(=O)C3(C)C)ccc(OC)c2n1 > 8.00
